Assignment: determine reported Kd for the given compounds.
Molecular target: MAPK14 (human) (UniProt Q16539)
Sequence (Q16539 whole entry, looked up): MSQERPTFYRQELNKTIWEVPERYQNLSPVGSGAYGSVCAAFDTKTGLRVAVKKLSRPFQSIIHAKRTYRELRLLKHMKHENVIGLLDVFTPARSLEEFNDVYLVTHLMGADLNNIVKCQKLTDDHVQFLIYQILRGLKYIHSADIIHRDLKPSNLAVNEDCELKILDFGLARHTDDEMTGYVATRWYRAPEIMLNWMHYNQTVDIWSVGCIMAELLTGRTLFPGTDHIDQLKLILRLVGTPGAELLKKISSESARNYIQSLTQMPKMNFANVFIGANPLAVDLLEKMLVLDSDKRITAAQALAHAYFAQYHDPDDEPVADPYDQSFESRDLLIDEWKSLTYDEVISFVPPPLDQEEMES
Assay: Cell-Based Assay
Conditions: thp1
Express your answer in nM, writing the number without its unit.

Item CC(C)(C)c1cc(NC(=O)Nc2ccc(N)cc2)n(-c2ccccc2)n1 has what recorded Kd?
318

Item Cc1cccc(NC(=O)Nc2cc(C(C)(C)C)nn2-c2ccccc2)c1C has what recorded Kd?
3

Item CC(C)(C)c1cc(NC(=O)NC2CCc3ccccc32)n(-c2ccccc2)n1 (stereo not given) has what recorded Kd?
3

Item CC(C)(C)c1cc(NC(=O)Nc2ccccc2)n(C2CCCCC2)n1 has what recorded Kd?
500

Item CC(C)(c1ccccc1)c1cc(NC(=O)Nc2ccccc2)n(-c2ccccc2)n1 has what recorded Kd?
760

Item CC(C)c1cc(NC(=O)Nc2ccccc2)n(-c2ccccc2)n1 has what recorded Kd?
330

Item CC(C)(C)c1cc(NC(=O)NCCc2ccccc2)n(-c2ccccc2)n1 has what recorded Kd?
260

Item CC(C)(C)c1cc(NC(=O)NC2Cc3ccccc3C2)n(-c2ccccc2)n1 has what recorded Kd?
14

Item Cc1ccc(-n2nc(C(C)(C)C)cc2NC(=O)Nc2ccccc2F)cc1 has what recorded Kd?
14

---

Biological target: UniProtKB Q16539
Assay: Cell-Based Assay
Details: thp1
Entries whose Kd is below 100 nM take Fulfilled; entries at or above 100 nM take Not fulfilled.

Item CC(C)(C)c1cc(NC(=O)Nc2cccc3ccccc23)n(-c2ccccc2)n1 : Kd beneath 100 nM, strictly?
Fulfilled

Item CC(C)(C)c1cc(NC(=S)Nc2ccc(Cl)cc2)n(-c2ccccc2)n1 : Kd beneath 100 nM, strictly?
Not fulfilled

Item CC(C)(C)c1cc(NC(=O)NC2CCCCC2)n(-c2ccccc2)n1 : Kd beneath 100 nM, strictly?
Not fulfilled

Item COCC(C)(C)c1cc(NC(=O)Nc2ccccc2)n(-c2ccccc2)n1 : Kd beneath 100 nM, strictly?
Not fulfilled

---

Observed pKd for UniProt Q16539, reported per entry below.
Conceptually, pKd converts a concentration in mol/L into minus its log10.

Find pKd (UniProt Q16539) for the entry COc1cccc(-n2nc(C(C)(C)C)cc2NC(=O)Nc2ccccc2)c1
7.72

Find pKd (UniProt Q16539) for the entry CC(C)(C)c1cc(NC(=O)Nc2ccccc2)n(-c2ccccc2)n1
7.89

Find pKd (UniProt Q16539) for the entry Cc1ccccc1-n1nc(C(C)(C)C)cc1NC(=O)Nc1ccccc1
6.70

Find pKd (UniProt Q16539) for the entry CC(C)(C)c1cc(NC(=O)NCc2ccccc2)n(-c2ccccc2)n1
7.33

---

Target: UniProtKB Q16539
Assay: Cell-Based Assay
Details: thp1
Categories are defined by ranges of EC50, namely lower (below 400 nM), middle (400 nM to below 1000 nM), upper (1000 nM or more)

Class (by measured EC50) for CC(C)(C)c1cc(NC(=O)NC2Cc3ccccc3C2)n(-c2ccccc2)n1
middle

Class (by measured EC50) for Cc1ccccc1-n1nc(C(C)(C)C)cc1NC(=O)Nc1ccccc1
upper

Class (by measured EC50) for Cc1ccc(-n2nc(C(C)(C)C)cc2NC(=O)Nc2ccccc2)cc1C
lower

Class (by measured EC50) for CC(C)(C)c1cc(NC(=O)NCCc2ccccc2)n(-c2ccccc2)n1
upper

Class (by measured EC50) for CC(C)(C)c1cc(NC(=O)Nc2ccccc2)n(-c2ccncc2)n1
middle

Class (by measured EC50) for Cc1ccc(-n2nc(C(C)(C)C)cc2NC(=O)Nc2ccccc2)cc1
lower

Class (by measured EC50) for Cc1ccc(-n2nc(C(C)(C)C)cc2NC(=O)Nc2ccccc2F)cc1
lower

Class (by measured EC50) for CC(C)(C)c1cc(NC(=O)Nc2ccccc2)n(-c2ccc3ccccc3c2)n1
upper

Class (by measured EC50) for COc1ccc(-n2nc(C(C)(C)C)cc2NC(=O)Nc2ccccc2)cc1
upper

Class (by measured EC50) for CC(C)(C)c1cc(NC(=O)Nc2ccc3ccccc3c2)n(-c2ccccc2)n1
middle

Class (by measured EC50) for COc1cccc(-n2nc(C(C)(C)C)cc2NC(=O)Nc2ccccc2)c1
middle

Class (by measured EC50) for CC(C)(C)c1cc(NC(=O)NCc2ccccc2)n(-c2ccccc2)n1
upper

Class (by measured EC50) for CC(C)(C)c1cc(NC(=O)NC2CCCCC2)n(-c2ccccc2)n1
upper

Class (by measured EC50) for Cc1ccc(-n2nc(C(C)(C)C)cc2NC(=O)Nc2cccc3ccccc23)cc1
lower

Class (by measured EC50) for Cc1cccc(-n2nc(C(C)(C)C)cc2NC(=O)Nc2ccccc2)c1
lower

Class (by measured EC50) for CC(C)(C)c1cc(NC(=O)Nc2cccc3ccccc23)n(-c2ccccc2)n1
lower

Class (by measured EC50) for CC(C)(C)c1cc(NC(=O)NC2CCc3ccccc32)n(-c2ccccc2)n1 (configuration not stated)
lower

Class (by measured EC50) for CC(C)(C)c1cc(NC(=O)Nc2ccccc2)n(-c2ccc(N)cc2)n1
middle

Class (by measured EC50) for CC(C)(C)c1cc(NC(=O)Nc2ccccc2)n(-c2ccccc2)n1
middle
